# Tested target: Dual specificity protein phosphatase 6 (Rattus norvegicus) (UniProt Q64346)
# Sequence (Q64346 whole entry, looked up): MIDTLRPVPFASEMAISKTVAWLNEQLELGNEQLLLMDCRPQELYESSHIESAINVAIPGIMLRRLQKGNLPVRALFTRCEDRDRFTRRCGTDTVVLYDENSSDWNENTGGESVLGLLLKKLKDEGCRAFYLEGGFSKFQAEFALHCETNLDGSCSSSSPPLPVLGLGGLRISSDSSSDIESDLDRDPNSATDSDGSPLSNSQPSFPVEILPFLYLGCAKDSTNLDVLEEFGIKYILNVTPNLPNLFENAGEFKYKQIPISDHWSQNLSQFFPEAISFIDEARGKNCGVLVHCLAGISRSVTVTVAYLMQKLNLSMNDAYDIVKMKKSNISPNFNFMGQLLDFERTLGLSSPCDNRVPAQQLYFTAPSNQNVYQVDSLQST
# Procedure details: rat DUSP6 enzyme activity inhibition – biochemical, in vitro, hit/probe assessment, dose response (AID 553)
# Experimental setup: recombinant MKP-3 phosphatase, fluorescence intensity
The source made the active and inactive calls. The rule behind the calls is not given here.
Could you please pick one outcome from this set? active, inactive

The following molecules have reported results that may help.
CCOC(=O)c1ccc(NC2c3ncccc3C(=O)N2Cc2ccc(F)cc2)cc1 (configuration not stated): inactive
Oc1ccc2ccccc2c1C=NC12CN3CCN(CN(C3)C1)C2: inactive
N#C/C(=C(/O)CSc1nnc(Cc2cccs2)n1C1CCCCC1)c1nc2ccccc2[nH]1: inactive
O=C1c2cccnc2C(Nc2ccc(S(=O)(=O)N3CCCCCC3)cc2)N1Cc1ccccc1 (configuration not stated): inactive
CCSCCOC(=O)C1=C(C)NC2=C(C(=O)CCC2)C1c1coc2ccccc2c1=O (configuration not stated): inactive

Query :: Hello, I am checking results. What call was entered for O=C1C(C2=C(O)c3ccccc3C2=O)=Nc2ccccc21 ?
Result :: active

Query :: Hello, I am checking results. What call was entered for COC(=O)C1=C(C)NC2=C(C(=O)c3ccccc32)C1c1ccc(-c2ccc(C(=O)O)cc2)o1 (configuration not stated) ?
Result :: inactive
